Target: p50 (in p50/RelA);RelA RHD (in p50/RelARHD) (Mus musculus;Mus musculus, UniProt P25799;Q04207 39-350;19-321, |)
Sequence (P25799 39-350, chain 1 of 2): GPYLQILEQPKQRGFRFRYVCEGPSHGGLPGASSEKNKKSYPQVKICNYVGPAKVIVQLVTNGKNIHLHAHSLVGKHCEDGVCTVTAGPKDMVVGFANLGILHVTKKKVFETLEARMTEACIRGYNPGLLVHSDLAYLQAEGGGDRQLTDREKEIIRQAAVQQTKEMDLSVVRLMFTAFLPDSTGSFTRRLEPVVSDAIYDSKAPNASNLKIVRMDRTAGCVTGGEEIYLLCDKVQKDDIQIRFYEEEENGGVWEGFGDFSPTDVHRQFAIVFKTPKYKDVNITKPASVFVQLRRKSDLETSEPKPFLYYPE
Sequence (Q04207 19-321, chain 2 of 2): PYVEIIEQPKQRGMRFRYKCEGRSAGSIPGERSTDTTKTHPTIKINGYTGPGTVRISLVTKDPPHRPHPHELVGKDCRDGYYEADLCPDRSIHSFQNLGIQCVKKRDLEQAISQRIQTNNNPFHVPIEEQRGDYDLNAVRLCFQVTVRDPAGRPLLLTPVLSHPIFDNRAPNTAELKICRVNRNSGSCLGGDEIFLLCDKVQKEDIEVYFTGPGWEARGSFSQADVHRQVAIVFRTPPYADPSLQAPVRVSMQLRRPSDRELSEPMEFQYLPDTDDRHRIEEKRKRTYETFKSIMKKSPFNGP
Test: fluorescence anisotropy
PROPERTY_LABEL: Kd (nM)

INSERT INTO measurements (binder, test_result) VALUES
  ('HIV LTR tandem dsDNA (anisotropy) (dsDNA, 5'' 5AmMC6) DNA 1: CAAGGGACTTTCCGCTGGGGACTTTCCAGG DNA 2: CCTGGAAAGTCCCCAGCGGAAAGTCCCTTG', 1.7);

Source: paper doi:10.1101/2022.04.11.487922
